Target: human P2Y12 receptor (Homo sapiens, UniProt Q9H244)
Sequence (Q9H244 whole entry): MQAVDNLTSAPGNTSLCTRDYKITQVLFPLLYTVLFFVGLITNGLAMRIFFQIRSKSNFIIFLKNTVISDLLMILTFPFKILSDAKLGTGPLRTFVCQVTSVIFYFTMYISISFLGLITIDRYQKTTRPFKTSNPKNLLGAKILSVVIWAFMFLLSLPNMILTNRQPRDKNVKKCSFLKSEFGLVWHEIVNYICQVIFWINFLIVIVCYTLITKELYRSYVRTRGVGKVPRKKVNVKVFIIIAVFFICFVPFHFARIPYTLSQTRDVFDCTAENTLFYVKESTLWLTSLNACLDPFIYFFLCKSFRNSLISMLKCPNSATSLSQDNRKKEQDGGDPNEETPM
Experiment: P2Y12 receptor binding assay
Settings: CHO cells with recombinant expression of the human P2Y12 receptor; tritium-labeled 2-methyl-S-ADP; incubation at room temperature for 2 hours
pIC50: −log10 of the molar value. Where a name gives a salt, the structure may show the parent alone.
Overview of recorded pIC50 for various molecules
measured endpoint: pIC50

molecule: CCOC(=O)N1CCN(C(=O)[C@H](CCC(=O)O)NC(=O)c2cc(NCC(C)O)nc(-c3ccccc3)n2)CC1 (stereo partly shown)
result number: 6.76

molecule: CCOC(=O)N1CCN(C(=O)[C@H](CCC(=O)O)NC(=O)c2cc(N)nc(-c3ccccc3)n2)CC1
result number: 6.79

molecule: CCOC(=O)N1CCN(C(=O)[C@H](CCC(=O)O)NC(=O)c2cc(OC3CCCC3)nc(-c3ccccc3)n2)CC1C (stereo partly shown)
result number: 6.29

molecule: CCOC(=O)N1CCN(C(=O)[C@H](CCC(=O)O)NC(=O)c2cc(CCC(C)(C)O)nc(-c3ccccc3)n2)CC1
result number: 6.56

molecule: CCOC(=O)N1CCN(C(=O)[C@H](CCC(=O)OC(C)(C)C)NC(=O)c2cc(OCC(=O)O)nc(-c3ccccc3)n2)CC1
result number: 5.09

molecule: CCCSc1cc(C(=O)N[C@@H](CCC(=O)O)C(=O)N2CCN(C(=O)OCC)CC2)nc(-c2ccccc2)n1
result number: 6.85

molecule: CC(C)(C)NC(=O)N1CCN(C(=O)[C@H](CCC(=O)O)NC(=O)c2cc(OC3CCCC3)nc(-c3ccccc3)n2)CC1
result number: 7.03

molecule: CCOC(=O)N1CCN(C(=O)[C@H](CCC(=O)O)NC(=O)c2cc(NCCCN3CCOCC3)nc(-c3ccccc3)n2)CC1
result number: 6.69

molecule: CCOC(=O)N1CCN(C(=O)[C@H](CCC(=O)O)NC(=O)c2cc(N(C)C)nc(-c3ccccc3)n2)CC1
result number: 6.92

molecule: CCOC(=O)N1CCN(C(=O)[C@H](CCC(=O)O)NC(=O)c2cc(C(C)=O)nc(-c3ccccc3)n2)CC1
result number: 7.14

molecule: CCOC(=O)N1CCN(C(=O)[C@H](CCC(=O)O)NC(=O)c2cc(SC3CCCCC3)nc(-c3ccccc3)n2)CC1
result number: 6.20

molecule: CCOC(=O)CCNc1cc(C(=O)N[C@@H](CCC(=O)O)C(=O)N2CCN(C(=O)OCC)CC2)nc(-c2ccccc2)n1
result number: 6.56

molecule: CCOC(=O)N1CCN(C(=O)[C@H](CCC(=O)O)NC(=O)c2cc(N3CCOCC3)nc(-c3ccccc3)n2)CC1 [Example 225, formate salt]
result number: 7.00

molecule: CCOC(=O)N1CCN(C(=O)[C@H](CCC(=O)O)NC(=O)c2cc(/C=C/C(C)O)nc(-c3ccccc3)n2)CC1 (stereo partly shown)
result number: 6.67

molecule: CCCCc1cc(C(=O)N[C@@H](CCC(=O)O)C(=O)N2CCN(C(=O)OCC)CC2)nc(-c2ccccc2)n1
result number: 7.01

molecule: CCOC(=O)N1CCN(C(=O)[C@H](CCC(=O)O)NC(=O)c2cc(CCO)nc(-c3ccccc3)n2)CC1
result number: 6.68

----------
Target: human P2Y12 receptor (Homo sapiens)
Construct: expressed in transfected cells; host or cells: Chinese Hamster Ovary (CHO) cells
Experiment: P2Y12 receptor binding assay
Settings: CHO cells with recombinant expression of the human P2Y12 receptor; tritium-labeled 2-methyl-S-ADP; incubation at room temperature for 2 hours
One threshold, 0.2 µM, splits the recorded IC50 values: lower ones are rule met, equal or higher ones are rule not met.

molecule: CCOC(=O)N1CCN(C(=O)[C@H](CCC(=O)O)NC(=O)c2cc(CSC3CCCC3)nc(-c3ccccc3)n2)CC1 [Example 378]
answer label: rule met
--
molecule: CCOC(=O)N1CCN(C(=O)[C@H](CC(=O)O)NC(=O)c2cc(OC3CCCC3)nc(-c3ccccc3)n2)CC1 [Example 2]
answer label: rule not met
--
molecule: CCOC(=O)N1CCN(C(=O)[C@H](CCC(=O)O)NC(=O)c2cc(CN(C)Cc3ccccc3)nc(-c3ccccc3)n2)CC1 [Example 362]
answer label: rule met
--
molecule: CCOC(=O)N1CCN(C(=O)[C@H](CCC(=O)O)NC(=O)c2cc(SC3CCCC3)nc(-c3ccccc3)n2)CC1 [Example 249]
answer label: rule met
--
molecule: CCOC(=O)N1CCN(C(=O)[C@H](CCC(=O)O)NC(=O)c2cc(C)nc(-c3cccc(C)c3)n2)CC1 [Example 105]
answer label: rule not met
--
molecule: CCOC(=O)N1CCN(C(=O)[C@H](CCC(=O)O)NC(=O)c2cc(N[C@H]3CC[C@H](O)CC3)nc(-c3ccccc3)n2)CC1 [Example 243]
answer label: rule not met

Reference for the values: patent US8048881B2
